- Test system: HCT-15
The label is Criterion met for GI50 below 30 µM and Criterion not met for GI50 equal to or exceeding 30 µM.

# example entries with known answers
CC(=O)Nc1cc(Cl)cc(Cl)c1O = Criterion not met
C=CN(C=C)C(=O)Cn1cc(-c2ccccc2)nn1 = Criterion not met
NS(=O)(=O)c1nnc(NS(=O)(=O)c2cccc3cccnc23)s1 = Criterion not met

Now for a further compound.
QUERY: For this compound, is GI50 lower than 30 µM? O=C(CCc1nnc2s/c(=C\c3ccccc3Cl)c(=O)n12)Nc1cc(Cl)ccc1Cl
RESULT: Criterion not met

----------
- Test system: OVCAR-4
- Assay Comment: NCI tumour cell line growth inhibition, 48 h
Active and inactive are the calls of the source. No stated cut-off is given here; in the data, active = GI50 up to about 1.1 µM and inactive = higher.
Lab note: assign the record to one of 1 for active, 0 for inactive

# example entries with known answers
COC1=C(OC)C(=O)C(Cc2c(Cl)nc3sccn23)=C(C)C1=O = 0
NC(C(=O)O)c1cc(O)no1 (stereo not given) = 0
CC12CC/C(=N/NC(N)=O)C3C1CCCC32 = 0
COc1ccc(/C=C2/CSCC3=C2N=C(S)NC3c2ccc(OC)c(OC)c2OC)c(OC)c1OC (stereo not given) = 0

Now for a further molecule.
QUERY: # fetch the recorded call for CC1(C)N=C(/C=N/O)C(C)(C)N1O here
RESULT: 0

----------
- Tested on: LXFL 529
- Assay Comment: NCI tumour cell line growth inhibition, 48 h
Activity calls are given as the source filed them. Cut-off read from the data, not from the text of the source: active = GI50 up to about 1.1 µM and inactive = higher.
Lab note: assign the record to one of active, inactive

# example entries with known answers
CSC(=O)C[C@@]12O[C@@H]([C@@H](C)C3CCC4[C@@H]5C(O)CC6=CC(=O)C=C[C@]6(C)C5CC[C@@]43C)C[C@](C)(O1)C(C)(C)O2 (stereo partly specified) = inactive
O=c1cc(-c2ccc(Cl)cc2)oc2cc(OCCCOc3ccc4c(=O)cc(-c5ccc(Cl)cc5)oc4c3)ccc12 = inactive
O=S1(=O)OCCOS(=O)(=O)C1(Br)Br = inactive
COC(=O)C1=Cc2cc(OC)c(OC)c(OC)c2[C@H](c2cc(OC)c(OC)c(OC)c2)C1C(=O)OC (stereo partly specified) = inactive

QUERY: # fetch the recorded call for O=Cc1ccc(-c2ccc(-c3ccc(C=O)s3)o2)s1 here
RESULT: active

QUERY: # fetch the recorded call for CNc1ccc2ncccc2c1[N+](=O)[O-] here
RESULT: inactive

QUERY: # fetch the recorded call for O=C1C2C(C(=O)N1c1ccccc1)C1c3ccccc3C2C2C(=O)N(c3ccccc3)C(=O)C21 (stereo unspecified) here
RESULT: inactive

QUERY: # fetch the recorded call for COc1ccc(/C(Cl)=C(\C=O)c2ccc(Cl)cc2)cc1 here
RESULT: inactive

QUERY: # fetch the recorded call for CC(C)(C)/N=C/N1C=Cc2nc3ccccc3cc2C1 here
RESULT: inactive

----------
- Tested on: HT-29
- Assay Comment: NCI tumour cell line growth inhibition, 48 h
Calls of active or inactive are those of the source. Cut-off read from the data, not from the text of the source: active = GI50 up to about 1.1 µM and inactive = higher.
Measured Attribute: GI50

// known answers, use as guide
COC(=O)c1c2c(cc3c1CC1(C3)Cc3cc4c(c(C(=O)OC)c3C1)CCC4)CCC2 = > 100 µM (inactive)
N#CCC(=O)N/N=C(\C(=O)Nc1ccc(Cl)c(Cl)c1)C1CN(c2ccccc2)N=C1N (stereo not given) = > 100 µM (inactive)
Cc1cc(=O)oc2c(C)c(OCCCOc3ccc4c(C)cc(=O)oc4c3C)ccc12 = > 100 µM (inactive)
O=C1CCCCN1C(=O)c1ccc([N+](=O)[O-])cc1 = > 100 µM (inactive)
CC1(C)Oc2ccccc2N2O[C@@H]3C(=O)N(c4ccccc4)C(=O)[C@@H]3C21c1ccccc1 (stereo not given in full) = 29 µM (inactive)
C[C@]12CC(c3ccccc3O1)C(C(=O)NC13CC4CC(CC(C4)C1)C3)C(=O)N2 (stereo not given in full) = 16.1 µM (inactive)
Cc1ccc(S(=O)(=O)NC(CO)C(=O)O)cc1 (stereo not given) = > 100 µM (inactive)
CCCCCOc1ccc(NC2=C(Cl)C(=O)c3c(O)ccc(O)c3C2=O)cc1 = 4.75 µM (inactive)

Hey, can you go through the list below and give me GI50 for every item?
1. O=C(O)c1nc2ccc(Cl)cc2[nH]c1=O
2. CO/N=C1/C(n2[nH]c(=O)n(-c3ccccc3)c2=O)C2C=CC1n1c(=O)n(-c3ccccc3)c(=O)n12 (stereo not given)

RESULT:
["> 100 µM (inactive)", "> 100 µM (inactive)"]
